B1: Far upstream element-binding protein 3, residues 75 to 150; numbered along this chain, Q96I24 (parent)
chain: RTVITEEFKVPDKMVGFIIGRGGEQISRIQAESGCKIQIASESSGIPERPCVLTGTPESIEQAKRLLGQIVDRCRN

Variants of: B1
Experiment: abundance fitness (aPCA) (normalised: wild type 0, dead -1); higher = more abundant; growth selection in yeast, the domain comes from the species named
Details: Homo sapiens
Assign class by abundance fitness: not lower than -0.2 means class 1; lower than -0.2 means class 0.

Take a look at these entries with their results.
Could you please find out whether E6L has abundance fitness that meets -0.2 or exceeds it?
class 0

Please indicate if the recorded abundance fitness for P57C meets or exceeds -0.2.
class 1

Form field: abundance fitness at least -0.2? Entry: Q25G
class 1

Is it the case that R75I has abundance fitness reaching or exceeding -0.2?
class 1

Form field: abundance fitness at least -0.2? Entry: Q62I
class 1

From here, focus on the item given below.
Is abundance fitness for D12L at or above -0.2?
class 1
